assay: yeast display, Sf9 membrane polyspecificity reagent, FACS + sequencing; frameworks hold sequencing errors
REPORTED METRIC: polyreactivity (PSR sort gate)

For `QVQLVESGGGLVQAGGSLRLSCAASGRTFSPYDMGWSRQAPGKERELVAAISFSDTITYYADSVKGRFTISRDNAKNTVYLQMNSLKPEDTAVYYCAADAGGYYEWELYDYWGQGTQVTVSS` , what is its reported polyreactivity (PSR sort gate)? low polyreactivity

For `QVQLVESGGGLVQAGGSLRLSCAASGRTFERNALGWYRQAPGKEREFVAAITEIGGSTYYADSVKGRFTISRDNAMNTVYLQMNSLKPEDTAVYYCAKDGTYSPYDYWGQGTQVTVSS` , what is its reported polyreactivity (PSR sort gate)? low polyreactivity

For `QVQHVESGGGIVQAGGSLRLSCAASGIIFSDYAMGWYRQARGKERELVATITRSVRTSYADSVKGRFTISRDNAKNTVYLQMNSLKPEDTAVYYCYADVVGAVIAYDYWGQGTQVTVSS` , what is its reported polyreactivity (PSR sort gate)? low polyreactivity
